B1: BCL2L13 (parent)
chain: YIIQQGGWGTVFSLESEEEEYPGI

variants of: B1; test: protein stability index of a GFP-peptide fusion (GPS, HEK-293T) (PSI 1-6); higher = more stable; conditions: c terminus: a fixed tail appended;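 note: lentivirally expressed fusions sorted by FACS into six bins by GFP to DsRed ratio, PSI derived from sequencing read proportions per bin multiplied by bin number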
// label = 1 (yes) if protein stability index is not less than 2, otherwise 0 (no)

- variant key: "Q5M"
  category: "0 (no)"
- variant key: "W8N"
  category: "1 (yes)"
- variant key: "W8T"
  category: "1 (yes)"

Continue with the next variant.
Kindly determine if protein stability index recorded for `W8E` is above or exactly 2.
1 (yes)
